# procedure details: wild-type TIM10 yeast growth inhibition – luminescence, uHTS, counter-screen for tim10-1 yeast inhibitor project, primary screen (AID 463195);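 note: wild-type TIM10 isogenic control strain grown at permissive 25 °C; 0% = DMSO yeast wells and 100% = minimal medium wells without yeast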
# setup conditions: S. cerevisiae TIM10 strain growth, BacTiter-Glo luminescence, 24 h; at 10 µM; hits give high values
The campaign covered roughly 330,000 compounds. About 4,600 (1.4%) were called active. The list comes from a sample in which actives are over-represented; it also holds close analogues and randomly drawn compounds.
Quick reference for inhibition among some compounds
assay endpoint: inhibition (%)

* C=CCn1c(C2CC(=O)N(c3ccc(C)cc3)C2)nc2ccccc21 (stereo not drawn) | 0.772
* Cc1ccc(F)cc1NC(=O)N1CCCN(c2ccc(C(F)(F)F)cn2)CC1 | 21.2
* CCCc1[nH]nc2c1C(c1ccc(OC)c(Cn3nc(C)c(Br)c3C)c1)C(C#N)=C(N)O2 (stereo not drawn) | 3.67
* COc1ccc(-c2cn3ccc(C)cc3n2)cc1 | 30.2
* Cc1c(CC(=O)N2CCN(C(=O)C3COc4ccccc4O3)CC2)c(=O)oc2c(O)c(O)ccc12 (stereo not drawn) | 14.5
* O=[N+]([O-])c1ccc(C=Nc2ccc(Cl)cc2Cl)s1 | 71.2
* Cn1c(-c2sccc2OCc2cccc(C(F)(F)F)c2)n[nH]c1=S | 42.2
* CCN(CC)S(=O)(=O)c1ccc(-c2cn3ccc(C)cc3n2)cc1 | 11.7
* Cn1c(-c2sc3cc(C(F)(F)F)cnc3c2-c2ccccc2)n[nH]c1=S | -3.83
* CCCc1[nH]nc2c1C(c1ccc(OC(=O)c3ccco3)cc1)C(C#N)=C(N)O2 (stereo not drawn) | 3.44
* O=C(NCCc1c[nH]c2ccccc12)c1cccc(Br)c1 | 4.34
* COc1ccc(C)cc1NC(=O)C(Sc1ccccc1)c1ccccc1 (stereo not drawn) | 2.49
* CCN1CCN(c2ccc(NC(=O)c3cnccn3)cc2)CC1 | -4.6
* Cc1ccc2nc(-c3ccc(Br)cc3)cn2c1 | 40.3
* CSCCC(NS(=O)(=O)/C=C/c1ccccc1)C(=O)N1CCC(C)CC1 (stereo not drawn) | 43.1
* Cc1nnc(-c2ccc(Oc3ccc(C)c(C)c3)c([N+](=O)[O-])c2)o1 | 17.1
* C/C(CC1CC(C)(C)OC1=O)=N/Nc1nc(-c2ccccc2)cs1 (stereo not drawn) | 17.6
* COc1cc(/C=N/n2c(C)n[nH]c2=S)ccc1OCc1ccccc1 | 8.61
* Cc1ccc(C(=O)OCC(=O)NCc2cc(C)c(O)c(C)c2)cc1S(=O)(=O)N1CCCCC1 | 0.371
* Cc1ccc(S(=O)(=O)N(C)CC(=O)NCCc2c[nH]c3ccccc23)cc1 | -8.68
* Cc1cc(C)cc(NC(=S)NCCc2c[nH]c3ccccc23)c1 | 40.6
* COc1ccc(Cl)cc1N(CC(=O)N1CCCCC1)S(C)(=O)=O | 1.46
* CSCCC(NC(=O)c1ccccc1)C(=O)N1CCCCCCC1 (stereo not drawn) | 2.09

====

# procedure details: wild-type TIM10 yeast growth inhibition – luminescence, uHTS, counter-screen for tim10-1 yeast inhibitor project, primary screen (AID 463195);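 note: wild-type TIM10 isogenic control strain grown at permissive 25 °C; 0% = DMSO yeast wells and 100% = minimal medium wells without yeast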
# setup conditions: S. cerevisiae TIM10 strain growth, BacTiter-Glo luminescence, 24 h; at 10 µM; hits give high values
The campaign covered roughly 330,000 compounds. About 4,600 (1.4%) were called active. Only a selection was taken, and actives are over-represented in it overall.
Quick reference for inhibition among some compounds
assay endpoint: inhibition (%)

* Cc1ccccc1N(C(=O)Cc1cccs1)C(C(=O)NC1CCCCC1)c1cn(C)nc1C (stereo not given) | 18.5
* COc1ccc(Cl)cc1NC(=O)CN(C)CC(=O)Nc1ccc2c(c1)OCO2 | -6.17
* Oc1ccccc1C1=NN(c2ccccc2)C(c2ccccc2)C1 (stereo not given) | 49
* CCOC(=O)c1cc(C(=O)Nc2ccc(S(=O)(=O)Nc3ccc(OC)cc3)cc2)nn1C | 8.95
* CC(=O)Nc1ccc(S(=O)(=O)Nc2ccc(N3CCCCC3)cc2)cc1 | -2.15
